TARGET_OR_SYSTEM: cloned human dopamine D3 receptors (Homo sapiens)
Construct: expressed in transfected cells; membrane homogenate
Sequence (P35462 whole entry): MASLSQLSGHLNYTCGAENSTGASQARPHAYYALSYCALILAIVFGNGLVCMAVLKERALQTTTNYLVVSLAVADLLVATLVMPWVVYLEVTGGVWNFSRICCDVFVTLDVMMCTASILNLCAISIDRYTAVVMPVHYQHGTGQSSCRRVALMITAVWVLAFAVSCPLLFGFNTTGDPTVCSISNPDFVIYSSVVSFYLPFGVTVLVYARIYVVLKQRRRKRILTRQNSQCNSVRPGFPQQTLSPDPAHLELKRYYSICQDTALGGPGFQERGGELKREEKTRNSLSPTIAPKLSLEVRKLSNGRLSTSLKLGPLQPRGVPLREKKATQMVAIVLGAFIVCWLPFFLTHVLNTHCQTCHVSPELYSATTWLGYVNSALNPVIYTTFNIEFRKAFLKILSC
EXPERIMENT: [N-Methyl-3H]Spiroperidol binding to cloned human dopamine D3 receptors (Protocol 1)
CONDITION_LABEL: the 22nd table; read-out: D3 Ki
The threshold is 90 nM. Values of Ki beneath it are tagged 1.0; values meeting or exceeding it are tagged 0.0.

TEST_SMILES: O=C(NCCCCN1CCN(c2nn(C(=O)c3ccc(F)cc3)c3ccsc23)CC1)c1ccc(F)cc1
CLASS_NAME: 1.0
--
TEST_SMILES: COc1ccccc1C(=O)NCCCCN1CCN(c2nn(C(=O)c3ccccc3OC)c3ccsc23)CC1
CLASS_NAME: 0.0
--
TEST_SMILES: O=C(NCCCCN1CCN(c2noc3ccsc23)CC1)c1cc(Cl)cc(Cl)c1
CLASS_NAME: 0.0

Read the next record carefully.
For O=C(NCCCCN1CCN(c2nn(C(=O)c3ccc(F)c(F)c3)c3ccsc23)CC1)c1ccc(F)c(F)c1 , is the recorded Ki below the cut-off of 90 nM? 0.0
